Tested on: NLuc-UAG PTC
assay.info: NanoLuc nonsense reporter screen (all-in-one HTC plasmid), TAG/UAG PTC, HEK293 cells
Assay type: cell-based, human
condition.summary: Table 2, Gln TAG
Source text: In order to enable the identification of the nucleotide composition and functional ability to suppress nonsense codons by new types of tRNA, an All-In-One Plasmid With A One Pot Cloning Reaction was invented for High Throughput Cloning FIG. 11. This approach enables the facile investigation of ACE-tRNA activity via luciferase activity in a standard 96 well format. […]
quantity.kind: Ranking

[[record]]
molecule = "GlnTAGchr6.trna175: ACE-tRNA Gln, TAG suppressor, SEQ ID NO: 17 (nucleic acid, expressed or natural sequence) CGTCGGCCCCATGGTGTAATGGTTAGCACTCTGGACTCTAAATCCAGCGATCCGAGTTCAAATCTCGGTGGGACCT"
recorded_result = "#2"

[[record]]
molecule = "GlnTAGchr6.trna63: ACE-tRNA Gln, TAG suppressor, SEQ ID NO: 18 (nucleic acid, expressed or natural sequence) CGTCGGTCCCATGGTGTAATGGTTAGCACTCTGGACTCTAAATCCAGCAATCCGAGTTCGAATCTCGGTGGGACCT"
recorded_result = "#3"

[[record]]
molecule = "GlnTAGchr17.trna14: ACE-tRNA Gln, TAG suppressor, SEQ ID NO: 19 (nucleic acid, expressed or natural sequence) CGTCGGTCCCATGGTGTAATGGTTAGCACTCTGGACTCTAAATCCAGCGATCCGAGTTCAAATCTCGGTGGGACCT"
recorded_result = "#4"

[[record]]
molecule = "GlnTAGchr1.trna17: ACE-tRNA Gln, TAG suppressor, SEQ ID NO: 16 (nucleic acid, expressed or natural sequence) CGTCGGTTCCATGGTGTAATGGTGAGCACTCTGGACTCTAAATCCAGCGATCCGAGTTCGAGTCTCGGTGGAACCT"
recorded_result = "#1"

[[record]]
molecule = "GlnTAGchr6.trna132: ACE-tRNA Gln, TAG suppressor, SEQ ID NO: 20 (nucleic acid, expressed or natural sequence) CGTCGGCCCCATGGTGTAATGGTCAGCACTCTGGACTCTAAATCCAGCGATCCGAGTTCAAATCTCGGTGGGACCC"
recorded_result = "#5"

